Molecular target: human GPR84 (Homo sapiens, UniProt Q9NQS5)
Assay: cell-based
Assay type: cell-based
Conditions: compound 10 μM; forskolin 10 μM
Sequence (Q9NQS5 whole entry): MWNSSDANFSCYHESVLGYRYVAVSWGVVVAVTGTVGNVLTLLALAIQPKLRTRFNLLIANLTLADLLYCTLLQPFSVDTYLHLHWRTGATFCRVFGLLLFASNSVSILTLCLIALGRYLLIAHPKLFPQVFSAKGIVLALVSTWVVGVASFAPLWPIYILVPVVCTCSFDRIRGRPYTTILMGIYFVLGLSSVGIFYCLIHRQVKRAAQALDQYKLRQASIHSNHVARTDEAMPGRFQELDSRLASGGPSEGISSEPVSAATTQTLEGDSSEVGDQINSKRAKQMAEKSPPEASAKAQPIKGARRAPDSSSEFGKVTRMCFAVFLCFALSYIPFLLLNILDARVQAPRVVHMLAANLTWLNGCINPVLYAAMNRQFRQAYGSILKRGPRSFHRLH
quantity.name: percent receptor activation at 10 μM, cAMP assay (%)

Answered cases to consult:
- compound: "CC(C)CCNc1cc(=O)[nH]c(=O)[nH]1"
  value.unit: "%"
  measured.number: 14
- compound: "O=c1cc(NCc2ccccc2)[nH]c(=O)[nH]1"
  value.unit: "%"
  measured.number: 12
- compound: "O=c1cc(NCCCCCCO)[nH]c(=O)[nH]1"
  value.unit: "%"
  measured.number: 51
- compound: "CC(C)(C)CNc1cc(=O)[nH]c(=O)[nH]1"
  value.unit: "%"
  measured.number: 4
- compound: "O=c1cc(N2CCC(c3ccccc3)CC2)[nH]c(=O)[nH]1"
  value.unit: "%"
  measured.number: 13
- compound: "O=C(O)CCCCCNc1cc(=O)[nH]c(=O)[nH]1"
  value.unit: "%"
  measured.number: 25
- compound: "CCCCCCNc1cc(=O)[nH]c(=O)n1C"
  value.unit: "%"
  measured.number: 32
- compound: "CCCCCCCCNc1cc(=O)n(C)c(=O)n1C"
  value.unit: "%"
  measured.number: 25
- compound: "COc1ccccc1N1CCN(CCCNc2cc(=O)n(C)c(=O)n2C)CC1 [urapidil, reference compound]"
  value.unit: "%"
  measured.number: 7
- compound: "CC(C)(C)CCNc1cc(=O)[nH]c(=O)[nH]1"
  value.unit: "%"
  measured.number: 18

(a) CCCCCCCCNc1cc(=O)[nH]c(=O)n1C
(b) O=C(O)CCCCCCCNc1cc(=O)[nH]c(=O)[nH]1
(c) CCCCCCCCNc1c[nH]c(=O)[nH]c1=O
(d) O=c1cc(NCc2cccc3ccccc23)[nH]c(=O)[nH]1
(e) CCCNc1cc(=O)[nH]c(=O)[nH]1
Falling order of percent receptor activation at 10 μM, cAMP assay, please. Return value: ordered labels per request. a, d, b, c, e
(a: 34%, d: 23%, b: 13%, c: 6%, e: −9%)

###

Molecular target: human GPR84 (Homo sapiens, UniProt Q9NQS5)
Assay: cell-based
Settings: EC50 ± SEM, β-arrestin assay, CHO cells expressing human GPR84
Sequence (Q9NQS5 whole entry): as above
Sequence (P32121 whole entry partner): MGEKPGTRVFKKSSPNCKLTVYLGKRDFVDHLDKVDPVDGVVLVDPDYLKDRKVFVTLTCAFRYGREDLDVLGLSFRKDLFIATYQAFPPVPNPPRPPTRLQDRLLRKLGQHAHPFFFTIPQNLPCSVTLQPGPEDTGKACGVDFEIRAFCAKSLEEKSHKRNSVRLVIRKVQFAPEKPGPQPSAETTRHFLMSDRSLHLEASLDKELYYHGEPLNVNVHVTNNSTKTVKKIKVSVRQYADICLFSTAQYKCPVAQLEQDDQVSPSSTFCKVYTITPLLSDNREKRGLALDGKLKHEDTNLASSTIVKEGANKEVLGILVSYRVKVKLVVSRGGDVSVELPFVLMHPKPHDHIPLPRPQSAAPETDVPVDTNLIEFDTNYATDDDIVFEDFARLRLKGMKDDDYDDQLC
pEC50: −log10 of the molar value.
quantity.name: pEC50

- smiles.entry: "O=c1cc(NCCc2ccc(Cl)cc2Cl)[nH]c(=O)[nH]1"
  pEC50: 7.09

(A) Cc1ccc(CCNc2cc(=O)[nH]c(=O)[nH]2)cc1
(B) O=c1cc(NCCOc2ccccc2)[nH]c(=O)[nH]1
Endpoint returns whichever of A and B has the numerically higher pEC50. Label of pick, please. A

(A) O=c1cc(NCCc2cccc(Cl)c2)[nH]c(=O)[nH]1
(B) Cc1cccc(CCNc2cc(=O)[nH]c(=O)[nH]2)c1
Form field 'greater pEC50' accepts A or B ; which applies? Write down the label attached to your selection. A

###

Target: human GPR84 (Homo sapiens)
Assay: cell-based
Assay type: cell-based
Conditions: EC50 ± SEM, cAMP assay, CHO cells expressing human GPR84; forskolin 10 μM
quantity.name: EC50 (nM)

Consider the following illustrative entries.
- smiles.entry: "CCCCCCCCNc1[nH]c(=O)[nH]c(=O)c1Br"
  value.unit: "nM"
  measured.number: 2000
- smiles.entry: "O=c1cc(NCCCOc2ccccc2)[nH]c(=O)[nH]1"
  value.unit: "nM"
  measured.number: 73
- smiles.entry: "Oc1cc(NCCCCc2ccccc2)nc(O)n1"
  value.unit: "nM"
  measured.number: 24

(a) CCCCCCNc1[nH]c(=O)[nH]c(=O)c1N=O
(b) Cc1cccc(CCNc2cc(=O)[nH]c(=O)[nH]2)c1
(c) CCCCCCCNc1cc(=O)[nH]c(=O)[nH]1
(d) CCCCCCCNc1[nH]c(=O)[nH]c(=O)c1N=O
Ascending by EC50, please. Use the labels to give the requested order. c, b, d, a

(1) O=c1cc(NCCc2ccc(F)cc2)[nH]c(=O)[nH]1
(2) COc1ccccc1N1CCN(c2cc(=O)[nH]c(=O)[nH]2)CC1
Thinking about recorded EC50 values, which is higher, 1 or 2 ? Respond with the label that goes with your answer. 1
